Biological target: human β3 adrenergic receptor (Homo sapiens)
Construct: expressed in transfected cells; host or cells: Chinese hamster ovary (CHO) cells, stably transfected
Sequence (P13945 whole entry): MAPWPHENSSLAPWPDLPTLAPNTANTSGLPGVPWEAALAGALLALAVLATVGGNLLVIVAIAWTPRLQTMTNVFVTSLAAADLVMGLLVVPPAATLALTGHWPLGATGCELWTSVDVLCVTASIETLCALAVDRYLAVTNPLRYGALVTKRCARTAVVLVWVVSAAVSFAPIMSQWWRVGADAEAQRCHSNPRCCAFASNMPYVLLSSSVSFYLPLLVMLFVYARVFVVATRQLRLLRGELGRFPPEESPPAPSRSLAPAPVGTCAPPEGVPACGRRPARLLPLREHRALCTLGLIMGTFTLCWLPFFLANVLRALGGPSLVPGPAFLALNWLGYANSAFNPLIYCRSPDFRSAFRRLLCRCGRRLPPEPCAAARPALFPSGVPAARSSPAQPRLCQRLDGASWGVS
Test: Functional assay: cAMP production (LANCE TR-FRET) in CHO cells stably transfected with cloned β3 adrenergic receptor
Type: cell-based
Settings: Table 9; read-out: Human β^3 Functional
EC50 overview

Study these solved cases before continuing.
CC(NC(=O)c1ccccc1)C(=O)Nc1ccc(C[C@@H]2CC[C@H]([C@H](O)c3ccccc3)N2)cc1 (some centres unmarked) ... < 1 nM
CC(NS(=O)(=O)Cc1ccccc1)C(=O)Nc1ccc(C[C@@H]2CC[C@H]([C@H](O)c3ccccc3)N2)cc1 (some centres unmarked) ... 11 to 100 nM
CC(N)C(=O)Nc1ccc(C[C@@H]2CC[C@H]([C@H](O)c3ccccc3)N2)cc1 (some centres unmarked) ... 11 to 100 nM
CC(C(=O)Nc1ccc(C[C@@H]2CC[C@H]([C@H](O)c3ccccc3)N2)cc1)N(C)C(=O)c1ccccn1 (some centres unmarked) ... 101 to 1000 nM
CC(NC(=O)c1c(F)cccc1F)C(=O)Nc1ccc(C[C@@H]2CC[C@H]([C@H](O)c3ccccc3)N2)cc1 (some centres unmarked) ... < 1 nM
CC(NC(=O)c1cc[nH]n1)C(=O)Nc1ccc(C[C@@H]2CC[C@H]([C@H](O)c3ccccc3)N2)cc1 (some centres unmarked) ... < 1 nM

For the molecule CC(NC(=O)c1ncccn1)C(=O)Nc1ccc(C[C@@H]2CC[C@H]([C@H](O)c3ccccc3)N2)cc1 (some centres unmarked) , give its measured EC50 value. < 1 nM

For the molecule CC(NC(=O)c1cnccn1)C(=O)Nc1ccc(C[C@@H]2CC[C@H]([C@H](O)c3ccccc3)N2)cc1 (some centres unmarked) , give its measured EC50 value. 1 to 10 nM
